Sourced from patent US6245816A

- Test system: German cockroach 2nd instars (Blattella germanica)
- experimentalDetails: German cockroach 2nd instars, continuous, low-dose ingestion exposure (treated cornmeal)
- Assay type: in vivo
- conditionDescription: continuous ingestion exposure, treated cornmeal, 42 days
LC50 (ppm) 42 days reference
Give just the number in ppm; leave the unit off.

| compound | endpointName | unitInfo | numericValue |
| --- | --- | --- | --- |
| CCN(C(=O)NC(=O)c1c(F)cccc1F)c1cc(Cl)c(OC(F)(F)C(F)C(F)(F)F)c(Cl)c1F (stereo not shown) [Compound 2] | LC50 (ppm) 42 days | ppm | 0.26 |

Consider now this further compound.
What measured LC50 (ppm) 42 days goes with CCN(C(=O)Nc1cc(Cl)c(OC(F)(F)C(F)C(F)(F)F)c(Cl)c1F)C(=O)c1c(F)cccc1F (stereo not shown) [Compound 3] ? 1.5
